- Method description: Nanoparticle tracking analysis (NTA) of TiO2 NPs after incubation with MLP ingredients
- Type: physicochemical
- Condition summary: 0.1 mg/mL TiO2 NPs + 0.1 mg/mL MLP ingredient, 60 min, diluted 1:100 in water
Parameter: particle diameter of TiO2 NPs, mean (nm)
Give a bare numeral; the unit nm is implied.

Prompt: Consider the compound O=C1C=C(O)C(=O)c2ccccc21 [HNQ, 2-hydroxy-1,4-naphtoquinone] and give its measured particle diameter of TiO2 NPs, mean.
Completion: 154

Prompt: Which particle diameter of TiO2 NPs, mean value belongs to CC(C=O)Cc1ccc(C(C)(C)C)cc1 (stereo not shown) ?
Completion: 136

Prompt: Recorded particle diameter of TiO2 NPs, mean of `COC(=O)c1ccc(O)cc1` , please.
Completion: 131

Prompt: Quick one: particle diameter of TiO2 NPs, mean of `CCCOC(=O)c1ccc(O)cc1` ?
Completion: 126

Prompt: Entry under review: `CCCCOC(=O)c1ccc(O)cc1` . Reported particle diameter of TiO2 NPs, mean?
Completion: 136

Prompt: Query: particle diameter of TiO2 NPs, mean; subject: `CCOC(=O)c1ccc(O)cc1`
Completion: 132

Prompt: particle diameter of TiO2 NPs, mean lookup needed for `Nc1ccc(N)cc1` , thanks.
Completion: 138
